Where these numbers come from: paper PMC8389922

assay.explanation: CD spectroscopy, secondary structure content (DichroWeb)
Format: physicochemical
setup.conditions: CD in DPC micelles (20 mM), peptide 50 μM, 25 °C, DichroWeb
Bridge positions count the residues as written; N and C are the ends. Square brackets hold non-standard residues; d marks the D form. Peptide text beside a SMILES is read from it.
experimental.endpoint: β-turn (%)

{"compound": "CC[C@H](C)[C@H](NC(=O)[C@H](CCCNC(=N)N)NC(=O)[C@@H]1CCCCn2cc(nn2)C[C@H](NC(=O)[C@H](Cc2ccccc2)NC(=O)[C@H](Cc2c[nH]c3ccccc23)NC(=O)[C@@H]2CCCN2C(=O)[C@@H](NC(=O)[C@@H](N)Cc2ccccc2)C(C)C)C(=O)N[C@@H](CCCCN)C(=O)N[C@@H](Cc2ccccc2)C(=O)NC(CC(C)C)C(=O)N1)C(=O)N[C@@H](CC(C)C)C(N)=O (stereo in doubt)", "observed.measurement": 10}
{"compound": "CC[C@H](C)[C@H](NC(=O)[C@H](CCCNC(=N)N)NC(=O)[C@@H]1CCCCNC(=O)CC[C@H](NC(=O)[C@H](Cc2ccccc2)NC(=O)[C@H](Cc2c[nH]c3ccccc23)NC(=O)[C@@H]2CCCN2C(=O)[C@@H](NC(=O)[C@@H](N)Cc2ccccc2)C(C)C)C(=O)N[C@@H](CCCCN)C(=O)N[C@@H](Cc2ccccc2)C(=O)N[C@H](CC(C)C)C(=O)N1)C(=O)N[C@@H](CC(C)C)C(N)=O [compound 24] (H-FVPWFEKF[dL]KRIL-NH2; lactam 6-10)", "observed.measurement": 4}
{"compound": "CC[C@H](C)[C@H](NC(=O)[C@H](CCCNC(=N)N)NC(=O)[C@]1(C)CCCC=CCCC[C@](C)(NC(=O)[C@H](Cc2ccccc2)NC(=O)[C@H](Cc2c[nH]c3ccccc23)NC(=O)[C@@H]2CCCN2C(=O)[C@@H](NC(=O)[C@@H](N)Cc2ccccc2)C(C)C)C(=O)N[C@@H](CCCCN)C(=O)N[C@@H](Cc2ccccc2)C(=O)N[C@H](CC(C)C)C(=O)N1)C(=O)N[C@@H](CC(C)C)C(N)=O", "observed.measurement": 5}
{"compound": "CC[C@H](C)[C@H](NC(=O)[C@H](CCCNC(=N)N)NC(=O)[C@@H]1CCC(=O)NCCCC[C@H](NC(=O)[C@H](Cc2ccccc2)NC(=O)[C@H](Cc2c[nH]c3ccccc23)NC(=O)[C@@H]2CCCN2C(=O)[C@@H](NC(=O)[C@@H](N)Cc2ccccc2)C(C)C)C(=O)N[C@@H](CCCCN)C(=O)N[C@@H](Cc2ccccc2)C(=O)N[C@H](CC(C)C)C(=O)N1)C(=O)N[C@@H](CC(C)C)C(N)=O [compound 12] (H-FVPWFKKF[dL]ERIL-NH2; lactam 6-10)", "observed.measurement": 7}
